Target: Human ROCK1 protein (amino acids 1–477) (Homo sapiens, UniProt Q13464)
Construct: purchased Carna Biosciences 01-109
Sequence (Q13464 1-477): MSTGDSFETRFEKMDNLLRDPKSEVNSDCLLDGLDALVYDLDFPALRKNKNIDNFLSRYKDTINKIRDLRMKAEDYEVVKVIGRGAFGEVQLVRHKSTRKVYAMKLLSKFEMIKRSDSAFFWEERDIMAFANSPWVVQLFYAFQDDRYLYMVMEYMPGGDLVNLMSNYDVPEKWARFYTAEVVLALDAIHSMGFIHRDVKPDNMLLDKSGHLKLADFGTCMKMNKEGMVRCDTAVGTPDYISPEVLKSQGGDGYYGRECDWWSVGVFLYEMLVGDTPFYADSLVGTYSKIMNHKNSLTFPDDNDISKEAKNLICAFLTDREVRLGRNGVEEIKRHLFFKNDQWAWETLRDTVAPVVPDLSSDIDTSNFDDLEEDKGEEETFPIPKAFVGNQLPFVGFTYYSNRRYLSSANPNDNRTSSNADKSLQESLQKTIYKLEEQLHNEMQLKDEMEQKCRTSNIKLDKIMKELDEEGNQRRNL
Experiment: ROCK1 HTRF KinEASE-STK S2 biochemical activity assay
Conditions: 2021-01-17 ROCK1 HTRF (n=1) 665/620; no unit printed (values equal the uM IC50 of the 7th table x 1e-6); read-out: qAC50
Protocol: Human ROCK1 protein (amino acids 1–477 from accession number NP_05397.1) was purchased from Carna Biosciences (Cat# 01-109). This sequence contains the catalytic domain of the protein, and the biochemical activity was measured by the HTRF KinEASE-STK S2 Kit (Cisbio, Cat# 62ST2PEB) according to the manufacturer’s protocol. […] The HTRF (665 nm/620 nm) signal was read on the PHERAstar reader (BMG Labtech). […]
measuredMetric: IC50 (µM)

Solved entries:
In [3]: df
Out[3]:
                                   compound  measuredmetric   value
0  CC(NC(=O)c1ccc(-c2cn[nH]c2)cc1)C1CC1c1ccccc1 (mixture of isomers) [Compound 6]            IC50   0.248
1  CSc1cccc(F)c1CNC(=O)c1ccc(-c2cn[nH]c2)cc1 [Compound 5]            IC50   0.173
2  COCc1cccc(CC(=O)Nc2ccc(-c3cn[nH]c3)cc2)c1 [Compound 1]            IC50  0.0793
3  O=C(NCC1(Cc2ccccc2)CC1)c1ccc(-c2cn[nH]c2)cc1 [Compound 4]            IC50   0.197

I: CC(CNC(=O)c1ccc(-c2cn[nH]c2)cc1)N1CCc2ccccc21 (stereo not drawn) [Compound 2]
II: CC(Cc1ccc(F)cc1F)NC(=O)c1ccc(-c2cn[nH]c2)cc1 (racemic) [Compound 3]
Task: Rank I against II by their IC50 values and give the higher one. Which one? Tell me its label.
Result: II
(II: 0.22 µM, I: 0.108 µM)

Source: paper PMC9616902
